- targetEntity: Cyclophilin A (Homo sapiens, UniProt P62937)
- Sequence (P62937 whole entry, species assumed): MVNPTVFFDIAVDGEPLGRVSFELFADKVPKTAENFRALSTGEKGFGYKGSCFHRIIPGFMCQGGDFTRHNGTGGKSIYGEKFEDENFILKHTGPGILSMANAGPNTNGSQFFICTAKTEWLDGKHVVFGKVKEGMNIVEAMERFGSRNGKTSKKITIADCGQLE
pIC50: −log10 of the molar value. Where a SMILES comes first, the peptide text is derived from it. [ ]: non-standard residue; d: D form. MeBmt = C/C=C/C[C@@H](C)[C@@H](O)[C@H](NC)C(=O)O; NMeF = CN[C@@H](Cc1ccccc1)C(=O)O; NMeL = CN[C@@H](CC(C)C)C(=O)O; NMeNle = CCCC[C@H](NC)C(=O)O; NMeV = CN[C@H](C(=O)O)C(C)C; NMeA = CN[C@@H](C)C(=O)O; Abu = CC[C@H](N)C(=O)O; Sar = CNCC(=O)O
assayMetric: pIC50

C/C=C/C[C@@H](C)[C@@H](O)[C@H]1C(=O)N[C@@H](CC)C(=O)N(C)CC(=O)N(C)[C@@H](Cc2ccccc2)C(=O)N[C@@H](CC(C)C)C(=O)N(C)[C@@H](C)C(=O)N[C@@H](C)C(=O)N[C@H](C)C(=O)N(C)[C@@H](CC(C)C)C(=O)N(C)[C@@H](CC(C)C)C(=O)N(C)[C@@H](C(C)C)C(=O)N1C [Compound C12] (cyclo([MeBmt][Abu][Sar][NMeF]L[NMeA]A[dA][NMeL][NMeL][NMeV]))	> 5.70
C/C=C/C[C@@H](C)[C@@H](O)[C@H]1C(=O)N[C@@H](CC)C(=O)N(C)CC(=O)N(C)[C@H](C)C(=O)N[C@@H](C(C)C)C(=O)N(C)[C@@H](CC(C)C)C(=O)N[C@@H](C)C(=O)N[C@H](C)C(=O)N(C)[C@@H](CC(C)C)C(=O)N(C)[C@@H](CC(C)C)C(=O)N(C)[C@@H](C(C)C)C(=O)N1C [Compound C35]	> 5.70

Report value: pIC50, system: Cyclophilin A (Homo sapiens, UniProt P62937), compound: C/C=C/C[C@@H](C)[C@@H](O)[C@H]1C(=O)N[C@@H](CC)C(=O)N(C)CC(=O)N(C)[C@@H](CCCC)C(=O)N[C@@H](C(C)C)C(=O)N(C)[C@@H](C)C(=O)N[C@@H](CC(C)C)C(=O)N[C@H](C)C(=O)N(C)[C@@H](CC(C)C)C(=O)N(C)[C@@H](CC(C)C)C(=O)N(C)[C@@H](C(C)C)C(=O)N1C [Compound C92] (cyclo([Abu][Sar][NMeNle]V[NMeA]L[dA][NMeL][NMeL][NMeV][MeBmt]))
> 5.70
